These data points were gathered from patent US10633379B2.

- Measured Target: BRD4 (BDII_E352-M457) (Homo sapiens (Human), UniProt O60885)
- Protocol Text: TR-FRET bromodomain binding assay, BRD4 BDII
- Experimental Context: mean Ki, calculated from IC50, probe Kd and probe concentration
Reported Endpoint: Ki (nM)

Some solved cases for reference:
INSERT INTO assay_data (compound, reported_endpoint, unit_abbreviation, value_reported) VALUES
  ('Cc1cccc(Cl)c1Oc1ccc(C(C)(C)O)cc1-c1cn(C)c(=O)c2[nH]c(C(=O)NC3(C)CC3(F)F)cc12 (stereo not shown) [Example 42]', 'Ki', 'nM', 5.7),
  ('Cc1cc(F)cc(C)c1Oc1ccc(C(C)(C)O)cc1-c1cn(C)c(=O)c2[nH]c(C(=O)NC34CC(C3)C4)cc12 [Example 75]', 'Ki', 'nM', 2.9),
  ('CCNC(=O)c1cc2c(-c3cc([C@](C)(O)CO)ccc3Oc3c(C)cccc3C)cn(C)c(=O)c2[nH]1 (single isomer, unassigned) [Example 69]', 'Ki', 'nM', 2.3);

[I] CCNC(=O)c1cc2c(-c3cc(C(C)(C)O)ccc3Oc3c(C)cc(Br)cc3C)cn(C)c(=O)c2[nH]1 [Example 72]
[II] CCNC(=O)c1cc2c(-c3cc(C(C)(O)c4ccc(F)cc4)cnc3Oc3c(C)cccc3C)cn(C)c(=O)c2[nH]1 (stereo not shown) [Example 17]
[III] CCNC(=O)c1cc2c(-c3cc(C(O)(CC)CC(C)C)cnc3Oc3c(C)cccc3C)cn(C)c(=O)c2[nH]1 (stereo not shown) [Example 10]
[IV] CCNC(=O)c1cc2c(-c3cc(C(C)(C)O)ccc3-c3ccc(OC(F)(F)F)cc3)cn(C)c(=O)c2[nH]1 [Example 110]
Rank the items in ascending order with respect to Ki. As an answer, provide the labels arranged in the order called for.
I, IV, II, III
(I: 1.3 nM, IV: 2 nM, II: 3 nM, III: 5.4 nM)

---

- Measured Target: BRD4 (BDII_E352-M457) (Homo sapiens (Human), UniProt O60885)
- Protocol Text: TR-FRET bromodomain binding assay, BRD4 BDII
- Experimental Context: mean Ki, calculated from IC50, probe Kd and probe concentration
Reported Endpoint: Ki (nM)

INSERT INTO measurements (molecule, value_reported) VALUES
  ('Cc1cc(F)cc(C)c1Oc1ccc(C(C)(C)O)cc1-c1cn(C)c(=O)c2[nH]c(C(N)=O)cc12 [Example 112]', 2.3),
  ('CCNC(=O)c1cc2c(-c3cc(C(O)(CC)C4CCCC4)cnc3Oc3c(C)cccc3C)cn(C)c(=O)c2[nH]1 (centres unmarked) [Example 11]', 2.6);

[P] CCNC(=O)c1cc2c(-c3cc(C(C)(C)O)cnc3Oc3c(Cl)cc(F)cc3Cl)cn(C)c(=O)c2[nH]1 [Example 101]
[Q] CCNC(=O)c1cc2c(-c3cc(C(C)(C)O)c(F)cc3Oc3c(C)cc(F)cc3C)cn(C)c(=O)c2[nH]1 [Example 65]
[R] Cc1cc(F)cc(Cl)c1Oc1ncc(C(C)(C)O)cc1-c1cn(C)c(=O)c2[nH]c(C(=O)NC3(C)CC3(F)F)cc12 (centres unmarked) [Example 62]
# rank_down: sort by Ki, max first Put the labels in the order asked and list them.
R, P, Q
